Test system: Mer (Homo sapiens)
Construct: host or cells: 293A cells (Thermo Fisher #R70507)
Protocol: Mer autophosphorylation ELISA in transient transfected 293A cells
Type: cell-based
Recorded conditions: cellular activity; MERTK-transfected 293A cells, phospho-Mer ELISA
Assay readout: IC50

Solved cases below.
O=C(Nc1ccc(F)cc1)C1(C(=O)Nc2ccc(Oc3ccnc4cc(-c5ccn[nH]5)ccc34)cc2)CC1	10 to 100 nM
Cn1nccc1-c1ccc2c(Oc3ccc(NC(=O)C4(C(=O)Nc5ccc(F)cc5)CC4)cc3)ccnc2c1	10 to 100 nM
O=C(Nc1ccc(F)cc1)C1(C(=O)Nc2ccc(Oc3ccnc4cc(-c5cnn(C(F)(F)F)c5)ccc34)cc2)CC1	100 to 300 nM

Please examine the following record next.
Prompt: Look up and report measured IC50 for this entry: `Cn1cc(-c2ccc3c(Oc4ccc(NC(=O)C5(C(=O)N6CCc7cc(F)ccc76)CC5)cc4)ccnc3c2)cn1`
Completion: 100 to 300 nM

* * *

Test system: Met (Homo sapiens, UniProt P08581)
Sequence (P08581 25-1390): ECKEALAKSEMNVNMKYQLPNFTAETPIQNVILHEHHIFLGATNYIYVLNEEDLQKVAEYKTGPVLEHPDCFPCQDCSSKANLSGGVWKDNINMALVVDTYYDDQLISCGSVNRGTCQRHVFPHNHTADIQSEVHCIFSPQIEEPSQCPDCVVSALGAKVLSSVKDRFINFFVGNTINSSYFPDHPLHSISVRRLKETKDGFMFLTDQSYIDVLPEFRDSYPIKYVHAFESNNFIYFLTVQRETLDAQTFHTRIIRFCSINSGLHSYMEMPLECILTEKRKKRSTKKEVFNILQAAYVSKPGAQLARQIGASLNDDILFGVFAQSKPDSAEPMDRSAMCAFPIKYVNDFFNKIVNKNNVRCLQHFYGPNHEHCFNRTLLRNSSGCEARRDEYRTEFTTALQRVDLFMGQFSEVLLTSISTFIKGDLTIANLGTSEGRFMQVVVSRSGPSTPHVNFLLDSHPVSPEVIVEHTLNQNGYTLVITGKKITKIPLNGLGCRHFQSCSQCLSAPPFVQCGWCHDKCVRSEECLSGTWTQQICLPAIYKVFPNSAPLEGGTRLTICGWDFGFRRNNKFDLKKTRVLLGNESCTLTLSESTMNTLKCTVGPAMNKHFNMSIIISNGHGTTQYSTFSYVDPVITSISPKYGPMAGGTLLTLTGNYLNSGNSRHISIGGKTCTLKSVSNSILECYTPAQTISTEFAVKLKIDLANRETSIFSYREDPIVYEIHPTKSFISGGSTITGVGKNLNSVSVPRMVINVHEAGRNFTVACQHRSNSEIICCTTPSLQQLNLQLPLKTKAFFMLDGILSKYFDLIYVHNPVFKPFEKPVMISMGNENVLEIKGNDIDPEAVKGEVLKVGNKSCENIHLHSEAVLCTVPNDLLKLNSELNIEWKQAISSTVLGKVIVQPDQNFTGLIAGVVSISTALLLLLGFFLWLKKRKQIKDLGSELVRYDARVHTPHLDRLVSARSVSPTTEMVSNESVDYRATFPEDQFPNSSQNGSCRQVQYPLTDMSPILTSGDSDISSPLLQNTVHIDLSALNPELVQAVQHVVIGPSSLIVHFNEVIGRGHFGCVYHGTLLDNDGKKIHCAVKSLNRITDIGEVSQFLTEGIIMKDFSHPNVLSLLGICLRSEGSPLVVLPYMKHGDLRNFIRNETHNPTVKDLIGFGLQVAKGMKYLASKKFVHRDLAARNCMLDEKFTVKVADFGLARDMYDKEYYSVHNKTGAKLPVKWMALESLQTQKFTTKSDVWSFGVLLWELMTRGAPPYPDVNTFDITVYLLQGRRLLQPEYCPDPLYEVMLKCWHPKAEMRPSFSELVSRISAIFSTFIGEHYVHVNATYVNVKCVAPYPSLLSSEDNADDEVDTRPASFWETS
Protocol: Met autophosphorylation ELISA in PC-3 cells
Type: cell-based
Parameters: endogenous in cells; host or cells: PC-3 prostate cancer cells (ATCC #CRL-1435)
Recorded conditions: cellular activity, HGF-stimulated, phospho-Met ELISA, read-out: c-Met IC50
Description: PC-3 prostate cancer cells (ATCC #CRL-1435) were seeded at 4×10^4 cells/well onto 24-well plates (Greiner #662165), in DMEM (Thermo Fisher #11995-040) containing 10% FBS (Thermo Fisher #26140-079), 1% MEM NEAA (Thermo Fisher #11140-050), 1% GlutaMax (Thermo Fisher #35050-061), and 1% Penicillin Streptomycin (Thermo Fisher #15140-122). […] IC50 values were calculated by nonlinear regression analysis using a 4-parameter logistic curve fit in ActivityBase XE (IDBS).
Assay readout: IC50

Prompt: Please look at this compound and report its IC50: `O=C(Nc1ccc(F)cc1)C1(C(=O)Nc2ccc(Oc3ccnc4cc(-c5ccccn5)ccc34)cc2)CC1`
Completion: 10 to 100 nM

Prompt: Please report the measured IC50 for CN(C(=O)C1(C(=O)Nc2ccc(Oc3ccnc4cc(-c5cnn(C)c5)ccc34)cc2)CC1)c1ccc(F)cc1 [Compound 82A]
Completion: > 300 nM

* * *

Test system: Met (Homo sapiens)
Protocol: Met autophosphorylation ELISA in PC-3 cells
Assay type: cell-based
Design: endogenous in cells; host or cells: PC-3 prostate cancer cells (ATCC #CRL-1435)
Recorded conditions: cellular activity, HGF-stimulated, phospho-Met ELISA, read-out: c-Met IC50
pIC50: −log10 of the molar value.
Assay readout: pIC50

O=C(Nc1ccc(F)cc1)C1(C(=O)Nc2ccc(Oc3ccnc4cc(-c5ccncc5)ccc34)cc2)CC1	≥ 8.00
Nc1n[nH]cc1-c1ccc2c(Oc3ccc(NC(=O)C4(C(=O)Nc5ccc(F)cc5)CC4)cc3)ccnc2c1	7.00 to 8.00
O=C(Nc1ccc(F)cc1)C1(C(=O)Nc2ccc(Oc3ccnc4cc(-c5cc(C(F)(F)F)[nH]n5)ccc34)cc2)CC1	6.52 to 7.00
CS(=O)(=O)N1CCC(c2ccc3c(Oc4ccc(NC(=O)C5(C(=O)Nc6ccc(F)cc6)CC5)cc4)ccnc3c2)C1 (stereo not shown)	7.00 to 8.00
O=C(Nc1ccc(F)cc1)C1(C(=O)Nc2ccc(Oc3ccnc4cc(-c5cncc(C(F)(F)F)c5)ccc34)cc2)CC1	6.52 to 7.00
O=C(Nc1ccc(F)cc1)C1(C(=O)Nc2ccc(Oc3ccnc4cc(-c5ncco5)ccc34)cc2)CC1	7.00 to 8.00
Cn1ncc(-c2ccc3c(Oc4ccc(NC(=O)C5(C(=O)Nc6ccc(F)cc6)CC5)cc4)ccnc3c2)n1	7.00 to 8.00
O=C(Nc1ccc(F)cc1)C1(C(=O)Nc2ccc(Oc3ccnc4cc(-c5ncc[nH]5)ccc34)cc2)CC1	≥ 8.00
Cn1cnc(-c2ccc3c(Oc4ccc(NC(=O)C5(C(=O)Nc6ccc(F)cc6)CC5)cc4)ccnc3c2)c1	≥ 8.00
O=C(Nc1ccc(F)cc1)C1(C(=O)Nc2ccc(Oc3ccnc4cc(-c5cccnc5)ccc34)cc2)CC1	7.00 to 8.00

Prompt: Output pIC50 of `CNC(=O)c1cc2c(Oc3ccc(NC(=O)C4(C(=O)Nc5ccc(F)cc5)CC4)cc3)ccnc2cc1-c1cnn(C)c1`
Completion: 7.00 to 8.00

* * *

Test system: KDR (Homo sapiens)
Sequence (P35968 20-1356): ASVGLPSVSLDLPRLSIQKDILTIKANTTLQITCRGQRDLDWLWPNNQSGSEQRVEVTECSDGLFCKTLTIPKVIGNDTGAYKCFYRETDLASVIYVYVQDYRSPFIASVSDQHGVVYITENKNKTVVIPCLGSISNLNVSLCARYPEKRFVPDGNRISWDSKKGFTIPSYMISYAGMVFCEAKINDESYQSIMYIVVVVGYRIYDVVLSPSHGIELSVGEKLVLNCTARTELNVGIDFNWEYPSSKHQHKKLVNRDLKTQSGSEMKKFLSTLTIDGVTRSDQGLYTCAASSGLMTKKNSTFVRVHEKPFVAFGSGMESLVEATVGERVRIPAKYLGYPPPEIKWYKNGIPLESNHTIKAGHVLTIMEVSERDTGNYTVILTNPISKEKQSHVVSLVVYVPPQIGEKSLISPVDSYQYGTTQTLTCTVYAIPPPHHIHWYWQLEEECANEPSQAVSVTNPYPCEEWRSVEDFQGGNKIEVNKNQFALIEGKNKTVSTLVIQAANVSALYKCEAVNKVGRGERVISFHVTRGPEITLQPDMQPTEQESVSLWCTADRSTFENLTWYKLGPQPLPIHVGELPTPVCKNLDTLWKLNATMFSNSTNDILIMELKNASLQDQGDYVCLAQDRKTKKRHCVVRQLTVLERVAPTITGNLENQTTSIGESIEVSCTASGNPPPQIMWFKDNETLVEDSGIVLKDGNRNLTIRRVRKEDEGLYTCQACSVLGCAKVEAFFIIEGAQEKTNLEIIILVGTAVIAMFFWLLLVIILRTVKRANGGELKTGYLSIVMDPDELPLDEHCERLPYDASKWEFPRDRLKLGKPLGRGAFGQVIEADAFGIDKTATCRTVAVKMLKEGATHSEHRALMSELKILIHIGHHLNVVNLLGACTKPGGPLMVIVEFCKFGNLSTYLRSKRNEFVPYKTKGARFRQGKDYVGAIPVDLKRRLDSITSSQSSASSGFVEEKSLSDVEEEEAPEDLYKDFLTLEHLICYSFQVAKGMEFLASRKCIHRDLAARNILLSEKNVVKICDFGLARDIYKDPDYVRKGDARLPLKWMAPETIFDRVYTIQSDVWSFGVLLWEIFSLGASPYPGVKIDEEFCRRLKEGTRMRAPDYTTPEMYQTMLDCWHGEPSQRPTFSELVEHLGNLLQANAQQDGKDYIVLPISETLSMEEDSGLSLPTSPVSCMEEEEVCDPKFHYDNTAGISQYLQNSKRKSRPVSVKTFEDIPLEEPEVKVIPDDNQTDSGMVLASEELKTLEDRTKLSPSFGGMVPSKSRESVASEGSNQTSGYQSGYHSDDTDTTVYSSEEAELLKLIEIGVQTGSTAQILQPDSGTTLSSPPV
Protocol: KDR autophosphorylation ELISA in HUVEC cells
Type: cell-based
Parameters: endogenous in cells; host or cells: HUVEC (Lonza #C2519A)
Recorded conditions: cellular activity, VEGF165-stimulated, phospho-KDR ELISA
Experimental: Human umbilical vein endothelial cells or HUVEC (Lonza #C2519A) were seeded at 2×10^4 cells/well onto 96-well plates (Corning #3904), in EGM-2 growth medium (Lonza #CC-3162) containing 1% Penicillin Streptomycin (Thermo Fisher #15140-122). […] IC50 values were calculated by nonlinear regression analysis using a 4-parameter logistic curve fit in ActivityBase XE (IDBS).
pIC50: −log10 of the molar value.
Assay readout: pIC50

Below, 2 compounds whose answers are already recorded.
O=C(Nc1ccc(F)cc1)C1(C(=O)Nc2ccc(Oc3ccnc4cc(-c5cccnc5O)ccc34)cc2)CC1	7.00 to 8.00
O=C(Nc1ccc(F)cc1)C1(C(=O)Nc2ccc(Oc3ccnc4cc(-c5cnn(C6CCNCC6)c5)ccc34)cc2)CC1	7.00 to 8.00

Here is the next item to consider.
Prompt: Give pIC50 for this entry on KDR (Homo sapiens): `O=C(Nc1ccc(F)cc1)C1(C(=O)Nc2ccc(Oc3ccnc4cc(-c5cccnc5)ccc34)c(F)c2)CC1`
Completion: ≥ 8.00

* * *

Test system: Human Mer (Homo sapiens, UniProt Q12866)
Construct: Human Mer (residues R557-E882 with H628Q and R794A, 0.7 nM)
Sequence (Q12866 557-882 limits assumed): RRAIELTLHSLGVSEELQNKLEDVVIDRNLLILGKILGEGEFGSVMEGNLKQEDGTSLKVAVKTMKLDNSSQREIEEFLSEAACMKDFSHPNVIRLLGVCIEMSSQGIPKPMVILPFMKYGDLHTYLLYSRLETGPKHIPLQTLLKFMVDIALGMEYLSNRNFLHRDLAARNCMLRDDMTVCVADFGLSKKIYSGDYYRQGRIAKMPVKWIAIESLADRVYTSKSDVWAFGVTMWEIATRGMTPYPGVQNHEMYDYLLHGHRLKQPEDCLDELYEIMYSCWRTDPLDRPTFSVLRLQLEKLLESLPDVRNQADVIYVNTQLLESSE
Protocol: Human Mer kinase assay (33P-phosphoryl transfer radiometric, KinaseProfiler)
Recorded conditions: biochemical activity; 10 μM ATP
Procedure: Kinase activity and compound inhibition were investigated using the ^33P-Phosphoryl transfer radiometric kinase assay, performed using the KinaseProfiler™ service of Eurofins Pharma Discovery Services UK Limited. Dose-response experiments were performed using nine compound concentrations in a 96-well microtiter plate. […] IC50 values were calculated by nonlinear regression analysis using the sigmoidal dose-response (variable slope) curve fit on XLFit version 5.3 (ID Business Solutions). […]
Assay readout: IC50

CC1Cc2cc(F)ccc2N1C(=O)C1(C(=O)Nc2ccc(Oc3ccnc4cc(-c5cnn(C)c5)ccc34)cc2)CC1 (stereo not drawn) [Compound 80]	100 to 1000 nM
O=C(Nc1ccc(F)cc1)C1(C(=O)Nc2ccc(Oc3ccnc4cc(-c5cnn(CC(F)F)c5)ccc34)cc2)CC1 [Compound 15]	≤ 10 nM
Cn1ccc(-c2ccc3c(Oc4ccc(NC(=O)C5(C(=O)Nc6ccc(F)cc6)CC5)cc4)ccnc3c2)n1 [Compound 17]	≤ 10 nM
O=C(Nc1ccc(F)cc1)C1(C(=O)Nc2ccc(Oc3ccnc4cc(-c5ccncc5)ccc34)cc2)CC1 [Compound 26]	≤ 10 nM
O=C(Nc1ccc(F)cc1)C1(C(=O)Nc2ccc(Oc3ccnc4cc(-c5cnn[nH]5)ccc34)cc2)CC1 [Compound 65]	100 to 1000 nM
Cc1cc2c(Oc3ccc(NC(=O)C4(C(=O)Nc5ccc(F)cc5)CC4)cc3)ccnc2cc1-c1cnn(C)c1 [Compound 78]	≤ 10 nM
CN1CCC(n2cc(-c3ccc4c(Oc5ccc(NC(=O)C6(C(=O)Nc7ccc(F)cc7)CC6)cc5)ccnc4c3)cn2)CC1 [Compound 61]	≤ 10 nM
O=C(Nc1ccc(F)cc1)C1(C(=O)Nc2ccc(Oc3ccnc4cc(-c5cnn(CCN6CCOCC6)c5)ccc34)cc2)CC1 [Compound 19]	≤ 10 nM
O=C(Nc1ccc(F)cc1)C1(C(=O)Nc2ccc(Oc3ccnc4cc(-c5cncnc5)ccc34)cc2)CC1 [Compound 27]	≤ 10 nM
C#Cc1ccc2c(Oc3ccc(NC(=O)C4(C(=O)Nc5ccc(F)cc5)CC4)cc3)ccnc2c1 [Compound 64]	10 to 100 nM

Prompt: Under Human Mer (Homo sapiens, UniProt Q12866), report IC50 for O=C(Nc1ccc(F)cc1)C1(C(=O)Nc2ccc(Oc3ccnc4cc(-c5cnoc5)ccc34)cc2)CC1 [Compound 57]
Completion: ≤ 10 nM

Prompt: Given Cc1cc(F)cc(C)c1NC(=O)C1(C(=O)Nc2ccc(Oc3ccnc4cc(-c5cnn(C)c5)ccc34)cc2)CC1 [Compound 82] , report its IC50 on Human Mer (Homo sapiens, UniProt Q12866).
Completion: ≤ 10 nM

Prompt: Tell me its IC50 on Human Mer (Homo sapiens, UniProt Q12866): O=C(Nc1ccc(F)cc1)C1(C(=O)Nc2ccc(Oc3ccnc4cc(-c5cnn(CCF)c5)ccc34)cc2)CC1 [Compound 14]
Completion: ≤ 10 nM

Prompt: Print Human Mer (Homo sapiens, UniProt Q12866) IC50 for CC(C)(C)n1cc(-c2ccc3c(Oc4ccc(NC(=O)C5(C(=O)Nc6ccc(F)cc6)CC5)cc4)ccnc3c2)cn1 [Compound 23] .
Completion: ≤ 10 nM

Prompt: # return IC50 for O=C(Nc1ccc(F)cc1)C1(C(=O)Nc2ccc(Oc3ccnc4cc(-c5ccn[nH]5)ccc34)cc2)CC1 [Compound 68] , test system: Human Mer (Homo sapiens, UniProt Q12866)
Completion: ≤ 10 nM

Prompt: Report IC50 from Human Mer (Homo sapiens, UniProt Q12866) testing of O=C(Nc1ccc(F)cc1)C1(C(=O)Nc2ccc(Oc3ccnc4cc(-c5cnn(C(F)F)c5)ccc34)cc2)CC1 [Compound 13]
Completion: ≤ 10 nM

Prompt: Tell me IC50 of CS(=O)(=O)n1cc(-c2ccc3c(Oc4ccc(NC(=O)C5(C(=O)Nc6ccc(F)cc6)CC5)cc4)ccnc3c2)cn1 [Compound 79] when tested on Human Mer (Homo sapiens, UniProt Q12866).
Completion: ≤ 10 nM

Prompt: Quote Human Mer (Homo sapiens, UniProt Q12866) IC50 for entry CN(C(=O)C1(C(=O)Nc2ccc(Oc3ccnc4cc(-c5cnn(C)c5)ccc34)cc2)CC1)c1ccc(F)cc1 [Compound 82A] .
Completion: 100 to 1000 nM
